Measured values drawn from ChEMBL document CHEMBL1157843 for this set.

- Tested on: Mus musculus
- MEASUREMENT_DESCRIPTION: Anticonvulsant in mouse assessed as protection against maximum electric stimulus-induced seizures at 100 mg/kg, ip after 4 hrs
- Assay type: functional, organism-based
- Design: dose 100 mg/kg
Active and inactive are the calls of the source. No cut-off for these calls is given here.
MEASURED_METRIC: Activity

Some compounds with recorded Activity:
SMILES_REPR | SYSTEM | Activity
CCCCCCCCCOc1ccc2nncn2n1 | Mus musculus | inactive
Cc1ccc(Oc2ccc3nncn3n2)cc1 | Mus musculus | inactive
Cc1ccccc1Oc1ccc2nncn2n1 | Mus musculus | inactive
COc1ccc(Oc2ccc3nncn3n2)cc1 | Mus musculus | inactive
Cc1cccc(Oc2ccc3nncn3n2)c1 | Mus musculus | inactive
Brc1ccc(Oc2ccc3nncn3n2)cc1 | Mus musculus | inactive
O=c1ccc(Oc2ccccc2)n[nH]1 | Mus musculus | inactive
COc1ccccc1Oc1ccc2nncn2n1 | Mus musculus | inactive

Param request: Activity | system Mus musculus | item Clc1ccccc1Oc1ccc2nncn2n1 inactive

Param request: Activity | system Mus musculus | item CCCCCCCCCCOc1ccc2nncn2n1 inactive

Param request: Activity | system Mus musculus | item CCCCOc1ccc2nncn2n1 inactive
